- ASSAYED_SYSTEM: angiotensin II (Rattus norvegicus, UniProt P25095)
- Construct: The measured parameter is the increase in the arterial blood pressure; from tissue; host or cells: whole anaesthetised rat with destroyed spine, in vivo (vascular receptors)
- Sequence (P25095 1-359): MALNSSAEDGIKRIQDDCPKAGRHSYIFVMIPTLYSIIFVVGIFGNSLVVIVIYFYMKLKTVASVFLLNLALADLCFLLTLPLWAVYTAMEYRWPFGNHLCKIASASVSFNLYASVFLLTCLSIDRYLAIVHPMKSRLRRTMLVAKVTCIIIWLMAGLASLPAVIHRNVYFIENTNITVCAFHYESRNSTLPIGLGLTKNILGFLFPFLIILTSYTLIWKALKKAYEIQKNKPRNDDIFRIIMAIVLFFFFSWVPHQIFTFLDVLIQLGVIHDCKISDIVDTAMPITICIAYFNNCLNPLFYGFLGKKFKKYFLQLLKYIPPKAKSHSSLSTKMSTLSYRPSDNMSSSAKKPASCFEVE
- ASSAY_EXPLANATION: displacement of angiotensin II dose-effect curves (increase in arterial blood pressure) in rats, pA2
- Assay type: in vivo
- SETUP_CONDITIONS: average, angiotensin II antagonism in rats, 10, 20 and 30 mg/kg i.v.
Item-by-item account of pA2 values

| COMPOUND | ASSAYED_SYSTEM | pA2 values |
| --- | --- | --- |
| CCCCc1nc2ccc(N3C(=O)[C@H]4CCCC[C@H]4C3=O)cc2n1Cc1ccc(-c2ccccc2-c2nn[nH]n2)cc1 [CC] | angiotensin II (Rattus norvegicus, UniProt P25095) | 8,54 |
| CCCCc1nc2ccc(N(CCCC)C(=O)NC3CCCCC3)cc2n1Cc1ccc(-c2ccccc2C(=O)O)cc1 [B] | angiotensin II (Rattus norvegicus, UniProt P25095) | 6,63 |
| CCCCc1nc2ccc(N(Cc3ccccc3)C(=O)NC3CCCCC3)cc2n1Cc1ccc(-c2ccccc2C(=O)O)cc1 [J] | angiotensin II (Rattus norvegicus, UniProt P25095) | 7,38 |
| CCCCc1nc2ccc(N(CC)C(=O)NC3CCCCC3)cc2n1Cc1ccc(-c2ccccc2C(=O)O)cc1 [C] | angiotensin II (Rattus norvegicus, UniProt P25095) | 6,36 |
| CCCCCN(C(=O)NC1CCCCC1)c1ccc2nc(CCCC)n(Cc3ccc(-c4ccccc4C(=O)O)cc3)c2c1 [G] | angiotensin II (Rattus norvegicus, UniProt P25095) | 6,89 |
| CCCCCN(C(=O)NC)c1ccc2nc(CCCC)n(Cc3ccc(-c4ccccc4C(=O)O)cc3)c2c1 [U] | angiotensin II (Rattus norvegicus, UniProt P25095) | 7,20 |
| CCCCc1nc2ccc(N(Cc3ccccc3)C(=O)OCC)cc2n1Cc1ccc(-c2ccccc2C(=O)O)cc1 [Q] | angiotensin II (Rattus norvegicus, UniProt P25095) | 6,83 |

Now consider the entry below.
Input line: Field request: pA2 values | item: CCCCc1nc2ccc(NC(=O)C3CCCCC3)cc2n1Cc1ccc(-c2ccccc2C(=O)O)cc1 [V]
Output line: 7,26

###

Item-by-item account of pA2 values
- ASSAYED_SYSTEM: angiotensin II (Rattus norvegicus)
- Construct: The measured parameter is the increase in the arterial blood pressure; from tissue; host or cells: whole anaesthetised rat with destroyed spine, in vivo (vascular receptors)
- Sequence (P25095 1-359): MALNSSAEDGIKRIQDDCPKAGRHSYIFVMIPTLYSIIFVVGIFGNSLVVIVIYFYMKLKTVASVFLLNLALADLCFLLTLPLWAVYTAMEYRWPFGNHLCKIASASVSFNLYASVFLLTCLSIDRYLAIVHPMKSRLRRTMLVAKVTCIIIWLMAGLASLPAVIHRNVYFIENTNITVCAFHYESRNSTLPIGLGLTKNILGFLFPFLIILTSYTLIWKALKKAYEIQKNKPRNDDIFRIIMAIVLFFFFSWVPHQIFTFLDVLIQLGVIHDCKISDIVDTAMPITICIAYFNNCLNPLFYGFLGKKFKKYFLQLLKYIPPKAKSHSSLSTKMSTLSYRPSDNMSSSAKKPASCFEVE
- ASSAY_EXPLANATION: displacement of angiotensin II dose-effect curves (increase in arterial blood pressure) in rats, pA2
- Assay type: in vivo
- SETUP_CONDITIONS: average, angiotensin II antagonism in rats, 10, 20 and 30 mg/kg i.v.

Consider the worked cases shown below.
| COMPOUND_STRUCTURE | MEASURED |
| --- | --- |
| CCCCc1nc2c(C)ccc(O)c2n1Cc1ccc(-c2ccccc2-c2nn[nH]n2)cc1 | 6,57 |
| CCCCC(=O)Nc1ccc2nc(CCCC)n(Cc3ccc(-c4ccccc4C(=O)O)cc3)c2c1 | 6,38 |
| CCCCc1nc2ccc(NC(=O)C(C)C)cc2n1Cc1ccc(-c2ccccc2C(=O)O)cc1 | 6,87 |
| CCCCCCNC(=O)N(Cc1ccccc1)c1ccc2nc(CCCC)n(Cc3ccc(-c4ccccc4C(=O)O)cc3)c2c1 | 7,23 |
| CCCCc1nc2ccc(N(Cc3ccccc3)C(=O)N(C)C)cc2n1Cc1ccc(-c2ccccc2C(=O)O)cc1 | 7,15 |
| CCCCc1nc2ccc(NC(=O)N(C)C)cc2n1Cc1ccc(-c2ccccc2C(=O)O)cc1 | 7,16 |
| CCCCc1nc2ccc(NC(=O)NCCCCCO)cc2n1Cc1ccc(-c2ccccc2C(=O)O)cc1 | 7,20 |
| CCCCNC(=O)Nc1ccc2nc(CCCC)n(Cc3ccc(-c4ccccc4C(=O)O)cc3)c2c1 | 6,46 |
| CCCCc1nc2ccc(N3Cc4ccccc4C3=O)cc2n1Cc1ccc(-c2ccccc2C(=O)O)cc1 | 6,12 |

Input line: Field request: pA2 values | item: CCCCc1nc2ccc(NC(=O)CC)cc2n1Cc1ccc(-c2ccccc2C(=O)O)cc1
Output line: 6,04
